Record form. Attribute: pKd. Fill in for each entry.
target: EGFR extracellular domain, Fc fusion (EGFR-Fc) (UniProt P00533 25-644); experiment: ELISA-type plate assay; EGFR-Fc on protein A 96-well plates, biotinylated aptamer, streptavidin-AP chemiluminescence, n = 3; buffer, salt, pH and temperature not in the material; conditions: protein: recombinant; tags: Fc; chain copies: 2; label: 5'-biotin; single strand
One number for each entry, as −log10 of the molar value.

GGACGGAUUUAAUCGCCGUAGAAAAGCAUGUCAAAGCCGGAACCGUCC (structured_RNA, 2'-F on all C and U; 5-phenyl-U at 9,10,46 (U2,U3,U8); 5-iodo-U at 19 (U5)) [MinE07UA'-Biotin]: 8.47

# batch: return pKd for each of the 3 binders below
1. GGACGGAUUUAAUCGCCGUAGAAAAGCAUGUCAAAGCCGGAACCGUCC (structured_RNA, 2'-F on all C and U; 5-vinyl on all 8 U (8,9,10,13,19,29,31,46)) [MinE07-U-Vi-Biotin]
2. GGACGGAUUUAAUCGCCGUAGAAAAGCAUGUCAAAGCCGGAACCGUCC (structured_RNA, 2'-F on all C and U; 5-phenyl-U at 9,10,19 (U2,U3,U5); 5-iodo-U at 13 (U4)) [MinE07UB-Biotin]
3. GGAUUUAAUCGCCGUAGAAAAGCAUGUCAAAGCCGGAACCGUCC (structured_RNA, 2'-F on all C and U; 5-vinyl-U at 4,27 (U1,U7); 5-phenyl-U at 25 (U6); lacks 5' GGAC) [MinE07UC-Biotin]

result:
1. 8.34
2. 8.83
3. 8.91

query: Please list pKd recorded for the binder GGACGGAUUUAAUCGCCGUAGAAAAGCAUGUCAAAGCCGGAACCGUCC (structured_RNA, 2'-F on all C and U; 5-iodo on all 8 U (8,9,10,13,19,29,31,46)) [MinE07-U-I-Biotin]
result: 8.69

Values compiled from paper PMC10498682.
